The compounds below each have a reported pIC50 tested on Oxysterols receptor LXR-alpha (Homo sapiens); the values come from various publications.
Molecular target: Oxysterols receptor LXR-alpha (Homo sapiens)
Sequence (Q13133 whole entry): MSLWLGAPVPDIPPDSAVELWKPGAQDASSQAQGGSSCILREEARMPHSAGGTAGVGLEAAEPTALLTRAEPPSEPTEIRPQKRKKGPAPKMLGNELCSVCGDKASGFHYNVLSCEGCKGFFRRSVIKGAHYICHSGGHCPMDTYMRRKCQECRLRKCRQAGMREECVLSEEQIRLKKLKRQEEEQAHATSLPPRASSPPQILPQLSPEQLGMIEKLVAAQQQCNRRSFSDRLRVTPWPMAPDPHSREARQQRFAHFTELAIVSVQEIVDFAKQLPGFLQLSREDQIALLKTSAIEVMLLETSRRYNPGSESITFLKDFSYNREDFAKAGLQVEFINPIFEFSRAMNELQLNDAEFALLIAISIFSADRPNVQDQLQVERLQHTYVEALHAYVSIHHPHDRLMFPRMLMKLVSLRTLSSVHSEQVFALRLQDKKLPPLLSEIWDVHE
// pIC50 here means minus log10 of the molar concentration (mol/L)

INSERT INTO measurements (compound, system_under_test, value_reported) VALUES
  ('CCCCN(Cc1ccccc1)c1ccc(C(O)(C(F)(F)F)C(F)(F)F)cc1', 'Oxysterols receptor LXR-alpha (Homo sapiens)', 6.77),
  ('CCN(c1ccc(C(O)(C(F)(F)F)C(F)(F)F)cc1)C(C(=O)N1CCOCC1)c1ccccc1 (racemic)', 'Oxysterols receptor LXR-alpha (Homo sapiens)', 5.27),
  ('CCCCN(Cc1cc(Cl)c(O)c(OC)c1)c1ccc(C(O)(C(F)(F)F)C(F)(F)F)cc1', 'Oxysterols receptor LXR-alpha (Homo sapiens)', 6.11);

Next up:
Q) Requested read-out: pIC50. Entry: CCCc1c(OCCCN(C)c2ccc(CC(=O)O)cc2Cl)ccc2c(C(F)(F)F)noc12
A) 6.20
